B1: SASS6 (parent)
chain: QKELQDVGQSLRIKEQEVCKLQEQ

- Variants of: B1
- Protocol text: protein stability index of a GFP-peptide fusion (GPS, HEK-293T) (PSI 1-6); higher = more stable;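 further: lentivirally expressed fusions sorted by FACS into six bins by GFP to DsRed ratio, PSI derived from sequencing read proportions per bin multiplied by bin number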
- Assay context: c terminus: a fixed tail appended
Please enter yes where protein stability index is greater than or equal to 5, and no where it is lower.

{"columns": ["Variant label", "Cat"],
 "data": [
  ["Q5D", "yes"],
  ["E23F", "no"],
  ["L21E", "yes"],
  ["E3V", "no"],
  ["D6L", "no"],
  ["Q9D", "yes"],
  ["S10P", "no"],
  ["Q24T", "yes"],
  ["S10W", "no"],
  ["Q16E", "yes"]
]}

Determine whether measured protein stability index meets or exceeds 5 for Q16T yes

Decide: is the reported value of protein stability index for E3F equal to or greater than 5? no

Given the entry V7M , answer whether its protein stability index meets or surpasses 5. no

Assess whether reported protein stability index for E17Q sits at 5 or higher. no

Quick check, protein stability index >= 5? V18P no
